- study.system: DNA dC->dU-editing enzyme APOBEC-3F (Homo sapiens) (UniProt Q8IUX4)
- Sequence (Q8IUX4 whole entry, looked up): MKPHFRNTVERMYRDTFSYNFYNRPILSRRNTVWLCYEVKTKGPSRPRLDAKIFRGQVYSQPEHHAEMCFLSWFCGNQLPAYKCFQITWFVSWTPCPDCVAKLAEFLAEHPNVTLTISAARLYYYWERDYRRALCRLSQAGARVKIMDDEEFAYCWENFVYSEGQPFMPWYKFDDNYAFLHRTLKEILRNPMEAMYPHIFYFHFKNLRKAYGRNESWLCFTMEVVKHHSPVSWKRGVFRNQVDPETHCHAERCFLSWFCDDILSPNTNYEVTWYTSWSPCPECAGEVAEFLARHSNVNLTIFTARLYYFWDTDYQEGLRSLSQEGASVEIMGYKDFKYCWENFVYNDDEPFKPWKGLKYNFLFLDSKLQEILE
- experiment: qHTS for inhibitors of Vif-A3F interactions: Cherry picks counterscreen; note: nearly all actives have a fitted effect of over 65% in size
- run.conditions: HeLa A3F-eYFP/Vif cells, eYFP fluorescence, 24 h; series mostly up to 46.1 µM
- Excerpt: The recent discovery and characterization of host restriction factors, which provide a potent defense to invading retroviruses, has provided new targets for antiviral drug development. […] In the presence of an inhibitor, it is expected that Vif will be unable to degrade A3G-eYFP and/or A3F-eYFP, resulting in an increase in yellow fluorescence. […]
Hit rate of the full screen: of about 2,100 compounds, about 1,100 (52%) were called active. Not shown: some 29% with an inconclusive outcome. Calls come from the whole dose curve; as a rule, active = well fitted inhibition curve with a large enough effect; inconclusive = small, poorly fitted or top-dose-only effect; inactive = no such curve, though single readings can be large or run the other way. The set was probably picked from earlier hits. The list shows a part of the results.
// one of 1 (active), -1 (inactive), no free text

Some entries whose results are on file:
IN: Which result was noted for this molecule in the test: N#Cc1c(C(F)(F)F)cc(-c2cccs2)nc1SCC(=O)Nc1ccc(Cl)cc1
OUT: 1

IN: Which result was noted for this molecule in the test: CN(C)c1ccc(/C=C/c2cc[n+](C)cc2)cc1
OUT: 1

IN: Which result was noted for this molecule in the test: COc1ccc(OC)c(/C=C/c2nc3ccccc3[nH]c2=O)c1
OUT: 1

Further cases:
IN: Which result was noted for this molecule in the test: CC[n+]1cc(C)ccc1/C=C/c1ccc(N(C)C)cc1
OUT: 1

IN: Which result was noted for this molecule in the test: N#Cc1c(C(F)(F)F)cc(-c2cccs2)nc1SCC(=O)Nc1cccc(C(F)(F)F)c1
OUT: 1

IN: Which result was noted for this molecule in the test: NC(=O)c1ccc(NC(=O)C#Cc2ccccc2)cc1
OUT: -1

---

- study.system: DNA dC->dU-editing enzyme APOBEC-3F (Homo sapiens)
- experiment: qHTS for inhibitors of Vif-A3F interactions: Cherry picks counterscreen; note: nearly all actives have a fitted effect of over 65% in size
- run.conditions: HeLa A3F-eYFP/Vif cells, eYFP fluorescence, 24 h; series mostly up to 46.1 µM
Among all 2,100 compounds or so, about 1,100 (52%) were called active. Inconclusive results (about 29%) are left out. Calls come from the whole dose curve; as a rule, active = well fitted inhibition curve with a large enough effect; inconclusive = small, poorly fitted or top-dose-only effect; inactive = no such curve, though single readings can be large or run the other way. So high a share suggests a set chosen from earlier hits. Some of the results follow.
// one of active, inactive, no free text

Some entries whose results are on file:
IN: Which result was noted for this compound in the test: O=S(=O)(Nc1nc2ccccc2nc1N1CCc2ccccc2C1)c1ccc(Br)cc1
OUT: active

IN: Which result was noted for this compound in the test: CC(=O)n1c2ccccc2c2nc3ccccc3nc21
OUT: active

IN: Which result was noted for this compound in the test: O=C1/C(=C/c2ccc(N3CCCC3)cc2)NC(=S)N1C1CC1
OUT: active

IN: Which result was noted for this compound in the test: COc1ccccc1CCC(=O)Nc1ccc2c(c1)c(=O)n(C)n2Cc1ccc(F)cc1
OUT: active

IN: Which result was noted for this compound in the test: CC(C)=CCn1c2ccc(NC(=O)NCc3ccc(F)cc3)cc2c(=O)n1C
OUT: active

Further cases:
IN: Which result was noted for this compound in the test: CN1CCN(c2nc3ccccc3nc2NS(=O)(=O)c2ccc(Br)cc2)CC1
OUT: active

IN: Which result was noted for this compound in the test: COc1ccc(C(=O)c2ccc(OC)c(OC)c2OC)cc1
OUT: active

IN: Which result was noted for this compound in the test: O=C(CSc1nc2ccc(Nc3nc(N4CCOCC4)nc(N4CCOCC4)n3)cc2s1)Nc1ccccc1F
OUT: active

IN: Which result was noted for this compound in the test: O=C(CSc1n[nH]c(-c2ccccn2)n1)Nc1ccc(Cl)cc1
OUT: inactive

IN: Which result was noted for this compound in the test: CN(C)c1ccc(/C=C/c2ccnc3ccccc23)cc1O
OUT: active

IN: Which result was noted for this compound in the test: Cc1cc(/C=C/c2ccnc3ccccc23)ccc1N
OUT: active

IN: Which result was noted for this compound in the test: CC(C)n1c(O)c(N=Nc2ccc(Cl)nn2)c2ccccc21
OUT: active

IN: Which result was noted for this compound in the test: O=S(=O)(Nc1nc2ccccc2nc1N1CCN(c2ccccc2)CC1)c1ccc(F)cc1
OUT: active

IN: Which result was noted for this compound in the test: Cc1ccccc1OCC(=O)NNC(=O)Nc1ccc(Cl)cc1
OUT: active

IN: Which result was noted for this compound in the test: Cc1ccc2c(CC(=O)NCc3ccco3)coc2c1C
OUT: active

IN: Which result was noted for this compound in the test: Cc1cccc(C)c1OCCNC(=O)C(=O)NCc1ccco1
OUT: active

IN: Which result was noted for this compound in the test: Cc1ccc(-c2nc(SCCOc3ccccc3C)n3[nH]c(=O)cc3n2)cc1
OUT: inactive

IN: Which result was noted for this compound in the test: C/C(=N/NC(N)=S)c1ccc(Br)s1
OUT: inactive

IN: Which result was noted for this compound in the test: Cc1cccc(-n2c(N)c(-c3nc4ccccc4n3C)c3nc4ccccc4nc32)c1
OUT: inactive
